Reported IC50 values follow for various compounds
# MEASUREMENT_TARGET: β5i of hu i-20S (Homo sapiens (Human), UniProt P20618+P28062)
# ASSAY_INFO: IC50 determination against β5i of human immunoproteasome (Ac-ANW-AMC hydrolysis);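 further: enzyme activity taken as the initial reaction velocity per well, with SDS added to activate the proteasome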
# Format: biochemical
# CONDITION: β5i, 0.4 nM i-20S, 15 μM Ac-ANW-AMC

These recorded examples may help you get a feel for the data.
> print(dat)
                                   compound                        measurement.target  endpoint    result
1  O=C1CCCCCCCCCC[C@@H](C(=O)NCc2ccccc2F)NC(=O)[C@H](CC(=O)N2CCCC2C2COC2)N1 (stereo partly drawn)  β5i of hu i-20S (Homo sapiens (Human), UniProt P20618+P28062)      IC50   0.11 µM
2  O=C1CCCCCCCCCC[C@@H](C(=O)NCc2cccc3ccccc23)NC(=O)[C@H](CC(=O)N2CCC[C@@H]2c2ccccc2)N1  β5i of hu i-20S (Homo sapiens (Human), UniProt P20618+P28062)      IC50   33.4 µM
3  C[C@@H]1Cc2cccc(c2)OCCCC[C@@H](C(=O)NC2CCCC2)NC(=O)[C@H](CCN2CCOCC2)NC1=O (single isomer, unassigned)  β5i of hu i-20S (Homo sapiens (Human), UniProt P20618+P28062)      IC50  > 100 µM

Incoming: Reported IC50, compound `Cn1cc(CNC(=O)[C@@H]2Cc3cccc(c3)Oc3cccc(c3)C[C@H](NC(=O)CO)C(=O)N[C@@H](CCc3ccccc3)C(=O)N2)cn1` : ____
Outgoing: 14.8 µM

Incoming: // query: `O=C1CCc2cccc(c2)OCCCC[C@@H](C(=O)NCc2ccccc2F)NC(=O)[C@H](CCN2CCOCC2)N1`
Outgoing: 3.5 µM

Incoming: Ok, now `CC(C)(C)NC(=O)[C@@H]1Cc2cccc(c2)Oc2cccc(c2)C[C@H](NS(C)(=O)=O)C(=O)N[C@@H](CCc2ccccc2)C(=O)N1`
Outgoing: > 100 µM

---

# MEASUREMENT_TARGET: β5c of hu c-20S (Homo sapiens (Human), UniProt P20618+P28074)
# ASSAY_INFO: IC50 determination against β5c of human constitutive proteasome (suc-LLVY-AMC hydrolysis)
# Type: biochemical
# CONDITION: 0.2 nM c-20S, 25 μM suc-LLVY-AMC
IC50: recorded values
Supply the numeric figure in µM, leaving out any unit text.

COMPOUND	UNITS	IC50
CC1(CNC(=O)[C@@H]2CCCCOc3cccc(c3)CCC(=O)N[C@@H](CCN3CCOCC3)C(=O)N2)CC1	µM	34.6
O=C1CCc2cccc(c2)OCCCC[C@@H](C(=O)NC2CCCC2)NC(=O)[C@H](CC(=O)N2CCCC2C2CC2)N1 (single isomer, unassigned) [Compound 3-45-B]	µM	3.6

Incoming: For β5c of hu c-20S (Homo sapiens (Human), UniProt P20618+P28074), provide IC50 of `CC(C)NC(=O)[C@@H]1Cc2cccc(c2)Oc2cccc(c2)C[C@H](NC(=O)c2ccccc2)C(=O)N[C@@H](CCc2ccccc2)C(=O)N1` please.
Outgoing: 6.93

Incoming: Next up: `CN1C(=O)[C@H](CCc2ccccc2)NC(=O)[C@@H](N2CCCC2=O)Cc2cccc(c2)OCCCC[C@H]1C(=O)NCC(F)(F)F`
Outgoing: 25.8

Incoming: Consider next the compound `CC(C)(C)NC(=O)[C@@H]1Cc2cccc(c2)Oc2cccc(c2)C[C@H](NS(C)(=O)=O)C(=O)N[C@@H](CCc2ccccc2)C(=O)N1` in the same way.
Outgoing: 3.6

Incoming: Note, next up: `CN(C)[C@H]1Cc2cccc(c2)OCCCC[C@@H](C(=O)NC2CCCC2)NC(=O)[C@H](CCc2ccc(F)cc2)NC1=O`
Outgoing: 9.5

Incoming: Ok, now `O=C(NC[C@H]1CCCO1)[C@@H]1CCCCOc2cccc(c2)C[C@H](N2CCCC2=O)C(=O)N[C@@H](CCc2ccc(F)cc2)C(=O)N1`
Outgoing: 85.3

Incoming: Try this compound too: `O=C1CCc2cccc(c2)OCCCC[C@@H](C(=O)NC2CCCC2)NC(=O)[C@H](CCc2ccc(F)cc2)N1`
Outgoing: 38.6

---

# MEASUREMENT_TARGET: β5c of hu c-20S (Homo sapiens (Human), UniProt P20618+P28074)
# ASSAY_INFO: IC50 determination against β5c of human constitutive proteasome (suc-LLVY-AMC hydrolysis)
# Format: biochemical
# CONDITION: 0.2 nM c-20S, 25 μM suc-LLVY-AMC
Documented IC50 across a set of compounds

Incoming: Record request: IC50 value, item `CN1CCN(C(=O)[C@@H]2Cc3cccc(c3)Oc3cccc(c3)C[C@H](NC(=O)c3ccccn3)C(=O)N[C@@H](CCc3ccccc3)C(=O)N2)CC1`
Outgoing: 30.7 µM

Incoming: Lookup `O=C1CCCCCCCCC[C@@H](C(=O)NCc2cccc3ccccc23)NC(=O)[C@H](CC(=O)N2CCCC2)N1`
Outgoing: > 100 µM

Incoming: // same read-out, input: `CCN(CC)C(=O)[C@@H]1Cc2cccc(c2)Oc2cccc(c2)C[C@H](NC(=O)c2ccncc2)C(=O)N[C@@H](CCc2ccccc2)C(=O)N1`
Outgoing: 3.04 µM

Incoming: Next record, please: `O=C1CCCCCCCCOC[C@@H](C(=O)NCc2ccccc2F)NC(=O)[C@H](CC(=O)N2CCC[C@@H]2c2ccccc2)N1`
Outgoing: 4.12 µM

Incoming: Now this one: `CCC(=O)N[C@H]1Cc2cccc(c2)Oc2cccc(c2)C[C@@H](C(=O)NCc2ccccc2)NC(=O)[C@H](CCc2ccccc2)NC1=O`
Outgoing: 4.01 µM

Incoming: Another compound to look at: `CCC(=O)N[C@H]1Cc2cccc(c2)Oc2cccc(c2)C[C@@H](c2nc3ccccc3o2)NC(=O)[C@H](CCc2ccccc2)NC1=O`
Outgoing: 5.93 µM

---

# MEASUREMENT_TARGET: β5c of hu c-20S (Homo sapiens (Human), UniProt P20618+P28074)
# ASSAY_INFO: IC50 determination against β5c of human constitutive proteasome (suc-LLVY-AMC hydrolysis)
# Type: biochemical
# CONDITION: 0.2 nM c-20S, 25 μM suc-LLVY-AMC
ENDPOINT: IC50 (µM)
Number only, in µM; omit the unit.

COMPOUND	MEASUREMENT_TARGET	ENDPOINT	NUMERIC_RESULT
CN(C)[C@H]1Cc2cccc(c2)Oc2cccc(c2)C[C@@H](C(=O)NCC(F)(F)F)NC(=O)[C@H](CCc2ccccc2)NC1=O	β5c of hu c-20S (Homo sapiens (Human), UniProt P20618+P28074)	IC50	1.1

Incoming: What value of IC50 has been recorded for this entry: `Cn1cc(CNC(=O)[C@@H]2Cc3cccc(c3)Oc3cccc(c3)C[C@H](N3CCCCC3)C(=O)N[C@@H](CCc3ccccc3)C(=O)N2)cn1`
Outgoing: 0.402

Incoming: Query `O=C(N[C@H]1Cc2cccc(c2)Oc2cccc(c2)C[C@@H](C(=O)N2CCCC2)NC(=O)[C@H](CCc2ccccc2)NC1=O)C1COC1` next
Outgoing: 7.52

Incoming: Also need `CCC(=O)N[C@H]1Cc2cccc(c2)Oc2cccc(c2)C[C@@H](C(=O)NC2CCCC2)NC(=O)[C@H](CCc2ccccc2)NC1=O` , thanks.
Outgoing: 2.8

Incoming: Next up: O=C1CCc2cccc(c2)OCCCC[C@@H](C(=O)NC2CCCC2)NC(=O)[C@H](CC(=O)N2CCCC2C2CC2)N1 (single isomer, unassigned) [Compound 3-45-A]
Outgoing: 12.3

Incoming: Try this compound next: O=C1CCc2cccc(c2)OCCCC[C@@H](C(=O)NCc2ccccc2F)NC(=O)[C@H](CC(=O)N2CCCC2C2CC2)N1 (single isomer, unassigned) [Compound 3-46-B]
Outgoing: 1.35

Incoming: Also, `CN(Cc1ccccc1)C(=O)[C@@H]1CCCCOc2cccc(c2)C[C@H](N2CCCC2=O)C(=O)N[C@@H](CCc2ccc(F)cc2)C(=O)N1` please.
Outgoing: 5.15

Incoming: Another: `CCN(CC)[C@H]1Cc2cccc(c2)Oc2cccc(c2)C[C@@H](C(=O)NC2CCCC2)NC(=O)[C@H](CCc2ccccc2)NC1=O`
Outgoing: 41.6

---

# MEASUREMENT_TARGET: β5c of hu c-20S (Homo sapiens (Human), UniProt P20618+P28074)
# ASSAY_INFO: IC50 determination against β5c of human constitutive proteasome (suc-LLVY-AMC hydrolysis);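 further: IC50 obtained by fitting initial reaction velocities to a dose-dependent inhibition model, with SDS present as proteasome activator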
# Format: biochemical
# CONDITION: 0.2 nM c-20S, 25 μM suc-LLVY-AMC
Below: a set of entries, each annotated with reported IC50.
The response must be a number in µM with no trailing unit.

Here is how some molecules turned out for IC50.
> print(dat)
                                   molecule                        measurement.target  numeric.result
1  O=C(N[C@H]1Cc2cccc(c2)Oc2cccc(c2)C[C@@H](C(=O)NCc2ccccc2)NC(=O)[C@H](CCc2ccccc2)NC1=O)c1ccccc1  β5c of hu c-20S (Homo sapiens (Human), UniProt P20618+P28074)             100
2  Cn1cnc(C(=O)N[C@H]2Cc3cccc(c3)Oc3cccc(c3)C[C@@H](C(=O)NCc3ccccc3)NC(=O)[C@H](CCc3ccccc3)NC2=O)c1  β5c of hu c-20S (Homo sapiens (Human), UniProt P20618+P28074)            3.52
3  COCC(=O)N[C@H]1Cc2cccc(c2)Oc2cccc(c2)C[C@@H](C(=O)NCC2CCCO2)NC(=O)[C@H](CCc2ccccc2)NC1=O (stereo partly drawn)  β5c of hu c-20S (Homo sapiens (Human), UniProt P20618+P28074)             9.7

Continue with the molecule presented below.
Incoming: Quick check: IC50 of `CS(=O)(=O)N[C@H]1Cc2cccc(c2)Oc2cccc(c2)C[C@@H](C(=O)NCC2CC2)NC(=O)[C@H](CCc2ccccc2)NC1=O` ?
Outgoing: 1.78
